- Test system: NCI-H226 lung
- Protocol: NCI tumour cell line growth inhibition, 48 h; in the data active = GI50 below about 0.43 µM; inactive = the rest
Outcomes: active, inactive

Compound	Answer label
COc1ccc2nc3c(n2c1)C(=O)C(=O)c1ccccc1-3	inactive
CCCCCCC(O)(c1ccc(F)cc1)C(CN1CCOCC1)c1ccccc1 (stereo unspecified)	inactive
COC(=O)c1ccc(C2SC(C)C(=O)N2NC(=O)C(O)c2ccccc2)cc1 (stereo unspecified)	inactive
CCCCCCCC/C(=C\C1=C(C)C(=O)C(OC)=C(OC)C1=O)C(=O)O	inactive
O=c1[nH]nc(-c2nn(-c3ccc(Cl)cc3)cc2O)o1	active
COC(=O)[C@]12CC[C@@H](C)[C@H](C)[C@@H]1C1=CC[C@@H]3[C@@]4(C)C[C@@H](OC(C)=O)[C@H](O)[C@@](C)(CO)[C@@H]4[C@H](O)C[C@@]3(C)[C@]1(C)CC2	inactive
CCOC(=O)c1cc(C(=O)c2cc(OC)c(OC)c(OC)c2)n2nc(C)ccc12	inactive
NS(=O)(=O)c1ccc(N=Nc2c(O)[nH]c3ccc(Cl)cc23)cc1	inactive
O=Cc1cn(Cc2ccccc2)c2ccccc12	inactive
O=C1C=CC2(NN=C(c3ccccc3)N2c2ccccc2)c2cccc(O)c21 (stereo unspecified)	inactive
COc1cc2c3c(n(CCCN)c(=O)c2cc1OC)-c1ccc(N(C)C)cc1C3=O	inactive
